Target: BCL-XL (Homo sapiens)
Construct: BCL-XL degradation results in MOLT-4 cells for compounds of the invention; endogenous in cells; host or cells: MOLT-4
Sequence (Q07817 whole entry): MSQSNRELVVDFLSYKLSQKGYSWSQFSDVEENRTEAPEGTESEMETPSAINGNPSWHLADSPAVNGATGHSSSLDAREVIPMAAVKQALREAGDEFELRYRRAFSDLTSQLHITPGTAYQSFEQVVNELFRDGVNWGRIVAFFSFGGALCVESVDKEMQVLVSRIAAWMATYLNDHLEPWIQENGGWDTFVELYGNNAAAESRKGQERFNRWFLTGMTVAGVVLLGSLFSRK
Experiment: BCL-XL degradation assay in MOLT-4 cells (ELISA, 6 h)
Assay type: cell-based
REPORTED METRIC: Dmax

INSERT INTO results (chem_smiles, system_tested, reported_metric, reading) VALUES
  ('Cc1ncsc1-c1ccc([C@H](C)NC(=O)[C@@H]2C[C@@H](O)CN2C(=O)[C@@H](NC(=O)CCCCCC(=O)N2CCN(CC[C@H](CSc3ccccc3)Nc3ccc(S(=O)(=O)NC(=O)c4ccc(N5CCN(CC6=C(c7ccc(Cl)cc7)CC(C)(C)CC6)CC5)cc4)cc3S(=O)(=O)C(F)(F)F)CC2)C(C)(C)C)cc1', 'BCL-XL (Homo sapiens)', 'Dmax', '> 75%');

Alright, here's another compound for you.
Qu. In one line, give reported Dmax of the entry `Cc1ncsc1-c1ccc([C@H](C)NC(=O)[C@@H]2C[C@@H](O)CN2C(=O)[C@@H](NC(=O)CCCCCCN(C)CC[C@H](CSc2ccccc2)Nc2ccc(S(=O)(=O)NC(=O)c3ccc(N4CCN(Cc5ccccc5-c5ccc(Cl)cc5)CC4)cc3)cc2[N+](=O)[O-])C(C)(C)C)cc1` .
Ans. < 50%
